Target: Vascular endothelial growth factor receptor 2 (Homo sapiens, UniProt P35968)
Sequence (P35968 whole entry, the tested form may be a part): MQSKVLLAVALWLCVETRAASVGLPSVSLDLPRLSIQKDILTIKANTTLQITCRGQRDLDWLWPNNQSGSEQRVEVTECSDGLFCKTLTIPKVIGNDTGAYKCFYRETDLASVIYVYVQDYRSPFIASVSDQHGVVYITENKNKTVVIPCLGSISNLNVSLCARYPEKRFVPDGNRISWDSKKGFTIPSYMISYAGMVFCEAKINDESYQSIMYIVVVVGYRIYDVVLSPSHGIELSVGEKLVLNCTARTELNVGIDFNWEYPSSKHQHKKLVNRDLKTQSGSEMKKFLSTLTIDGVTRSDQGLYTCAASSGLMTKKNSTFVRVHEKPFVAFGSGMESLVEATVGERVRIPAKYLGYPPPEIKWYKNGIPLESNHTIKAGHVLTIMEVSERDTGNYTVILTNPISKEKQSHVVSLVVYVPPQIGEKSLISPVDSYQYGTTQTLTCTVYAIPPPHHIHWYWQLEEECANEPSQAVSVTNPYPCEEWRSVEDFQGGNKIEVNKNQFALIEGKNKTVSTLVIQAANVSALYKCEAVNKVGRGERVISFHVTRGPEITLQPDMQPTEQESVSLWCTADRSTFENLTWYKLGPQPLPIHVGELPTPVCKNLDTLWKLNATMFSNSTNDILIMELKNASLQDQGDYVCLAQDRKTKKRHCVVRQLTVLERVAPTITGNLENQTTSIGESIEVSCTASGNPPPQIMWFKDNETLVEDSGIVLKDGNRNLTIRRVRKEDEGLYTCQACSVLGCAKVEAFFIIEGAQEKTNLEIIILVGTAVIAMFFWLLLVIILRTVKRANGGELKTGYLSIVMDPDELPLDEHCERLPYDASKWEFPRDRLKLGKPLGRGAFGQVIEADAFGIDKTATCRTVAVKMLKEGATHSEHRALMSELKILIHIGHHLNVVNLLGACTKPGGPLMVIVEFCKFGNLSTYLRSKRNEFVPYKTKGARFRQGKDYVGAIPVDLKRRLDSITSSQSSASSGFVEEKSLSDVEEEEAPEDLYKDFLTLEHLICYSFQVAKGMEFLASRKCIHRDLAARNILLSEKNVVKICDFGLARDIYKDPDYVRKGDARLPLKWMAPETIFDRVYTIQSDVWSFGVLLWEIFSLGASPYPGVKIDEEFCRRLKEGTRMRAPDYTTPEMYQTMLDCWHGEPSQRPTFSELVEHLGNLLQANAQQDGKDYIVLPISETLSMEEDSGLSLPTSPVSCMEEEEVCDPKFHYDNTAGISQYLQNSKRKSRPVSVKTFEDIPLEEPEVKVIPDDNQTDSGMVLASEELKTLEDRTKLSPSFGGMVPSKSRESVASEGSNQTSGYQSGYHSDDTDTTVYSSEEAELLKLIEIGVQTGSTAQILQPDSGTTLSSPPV
Test: Inhibition of recombinant human N-terminal GST-fused KDR (D807 to V1356 residues) expressed in baculovirus infected […] insect Sf9 cells using poly-EY as substrate after 240 mins by luciferase coupled chemiluminescence assay
pIC50: −log10 of the molar value.
measure-name: pIC50

• COc1cc2c(Nc3ccc(Cl)c(Cl)c3)ncnc2cc1OCC1CN(C)C(C)(C)C(=O)O1 (centres undefined) = 6.00 to 7.30
• CCCCC(CC)C(=O)N1CCOC(COc2cc3ncnc(Nc4ccc(Cl)c(Cl)c4)c3cc2OC)C1 (centres undefined) = 6.00 to 7.30
• CCCCCC(=O)N1CCOC(COc2cc3ncnc(Nc4ccc(Cl)c(Cl)c4)c3cc2OC)C1 (centres undefined) = 6.00 to 7.30
• COc1cc2c(Nc3ccc(Cl)c(Cl)c3)ncnc2cc1OCC1CN(C)CC(C)(C)O1 (centres undefined) = 6.00 to 7.30
• COc1cc2c(Nc3ccc(Cl)c(Cl)c3)ncnc2cc1OCCC1CNC(C)(C)CO1 (centres undefined) = 6.00 to 7.30
• COc1cc2c(Nc3cc(Cl)c(Cl)cc3F)ncnc2cc1OC[C@@H]1CN2CCC[C@H]2CO1 = > 7.30
• COCCNC(=NC#N)N1CCOC(COc2cc3ncnc(Nc4ccc(Cl)c(Cl)c4)c3cc2OC)C1 (centres undefined) = 6.00 to 7.30
• COc1cc2c(Nc3ccc(Br)c(Cl)c3)ncnc2cc1O[C@@H]1CO[C@H]2[C@@H]1OC[C@@H]2O = 4.70 to 6.00
• COc1cc2c(Nc3cccc(Br)c3Cl)ncnc2cc1OCC1CN(C)CCO1 (centres undefined) = 6.00 to 7.30

###

This listing pairs molecules with measured pIC50.
Target: Vascular endothelial growth factor receptor 2 (Homo sapiens, UniProt P35968)
Experiment: Inhibition of recombinant human N-terminal GST-fused KDR (D807 to V1356 residues) expressed in baculovirus infected […] insect Sf9 cells using poly-EY as substrate after 240 mins by luciferase coupled chemiluminescence assay
pIC50: −log10 of the molar value.
measure-name: pIC50

- COc1cc2c(Nc3ccc(Cl)c(Cl)c3)ncnc2cc1OCC1CN(CCCC#N)CCO1 (centres undefined): > 7.30
- COc1cc2c(Nc3ccc(Br)c(Cl)c3)ncnc2cc1O[C@H]1CO[C@H]2[C@@H]1OC[C@@H]2SC: 4.70 to 6.00
- COc1cc2c(Nc3ccc(Br)cc3Cl)ncnc2cc1OCC1CN(C)CCO1 (centres undefined): 6.00 to 7.30
- COc1cc2c(Nc3ccc(Cl)c(Cl)c3)ncnc2cc1OCC1CN(C(C)=O)CCO1 (centres undefined): 6.00 to 7.30
- COc1cc2c(Nc3ccc(Cl)cc3F)ncnc2cc1OCC1CN(C)CCO1 (centres undefined): > 7.30
- COC(=O)CCC(=O)N1CCOC(COc2cc3ncnc(Nc4ccc(Cl)c(Cl)c4)c3cc2OC)C1 (centres undefined): 6.00 to 7.30
- COc1cc2c(Nc3ccc(Br)c(Cl)c3)ncnc2cc1O[C@@H]1CO[C@H]2[C@@H]1OC[C@@H]2NS(C)(=O)=O: 4.70 to 6.00
- COc1cc2c(Nc3ccc(Cl)c(Cl)c3)ncnc2cc1OCC1CN(CCc2ccccc2)CCO1 (centres undefined): 6.00 to 7.30
- COc1cc2c(Nc3ccc(F)c(Cl)c3F)ncnc2cc1OC[C@@H]1CN2CCC[C@H]2CO1: 6.00 to 7.30
